Catalogue of variants with associated protein stability index
B1: PTPN9 (parent)
chain: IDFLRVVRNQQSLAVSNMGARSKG

Variants of: B1
Assay: protein stability index of a GFP-peptide fusion (GPS, HEK-293T) (PSI 1-6); higher = more stable;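 further: lentivirally expressed fusions sorted by FACS into six bins by GFP to DsRed ratio, PSI derived from sequencing read proportions per bin multiplied by bin number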
Conditions: c terminus: a fixed tail appended
Could you keep your reply to the number by itself?

- Variant string: "G19H"
  protein stability index: 2.57

Suppose we examine the variant R8G ; what protein stability index value has been reported? 2.37

Which measured protein stability index value corresponds to L13Y ? 2.57
